test system: MDA-N; assay: NCI tumour cell line growth inhibition, 48 h
Readout name: TGI

Reference set (5 entries):
{"Smiles record": "COc1ccc(/C=N/n2c(C)n[nH]c2=O)cc1", "Readout name": "TGI", "Reported result": "> 100 µM"}
{"Smiles record": "COC(=O)[C@H]1ON2O[C@@H](O[C@H]3CCCC[C@@H]3C(C)(C)c3ccccc3)C[C@@H]3CC[C@H]1[C@@]32C", "Readout name": "TGI", "Reported result": "> 100 µM"}
{"Smiles record": "CCOC(=O)CC[C@@H](NC(=O)c1ccc(NCc2ccc3nc(OC)c(OC)nc3c2)cc1)C(=O)OCC", "Readout name": "TGI", "Reported result": "> 85.2 µM"}
{"Smiles record": "O=C1CNc2cc(N3CCN(c4cccc(C(F)(F)F)c4)CC3)ccc2N1", "Readout name": "TGI", "Reported result": "> 100 µM"}
{"Smiles record": "FC(F)(F)C1(C(F)(F)F)OC(Cl)(Cl)C(Cl)(Cl)O1", "Readout name": "TGI", "Reported result": "> 10 µM"}

Proceeding to the next molecule to report its TGI.
In: Using the record for CC1(C)OC[C@@]2([C@@H]3CC[C@@H](C3)C2(C)C)N1O , report its TGI.
Out: > 100 µM

* * *

# TGI annotations
system: NCI-H23 lung; test: NCI tumour cell line growth inhibition, 48 h

In: For the record Cc1c(Cl)cccc1NC(=O)c1sc2nc3c(cc2c1N)CCCCCC3 , what value of TGI is listed for NCI-H23 lung?
Out: > 50 µM

In: Follow-up entry: Nc1ncc(-c2ccc(C(F)(F)F)cc2)c(NC2CCCCCC2)n1
Out: > 100 µM

* * *

test system: SK-MEL-28 melanoma; assay: NCI tumour cell line growth inhibition, 48 h; in the data active means GI50 below about 0.43 µM; inactive means the rest
One label from this list, please: 1 for active, -1 for inactive

{"Smiles record": "O=C(Nc1cc(Cl)ccc1O)c1cccc(NC2=C(Cl)C(=O)N(Cc3ccccc3)C2=O)c1", "Group label": -1}
{"Smiles record": "O=[N+]([O-])c1cccc2nc3ccccc3c(NCCNCCO)c12", "Group label": 1}
{"Smiles record": "O=C(Nc1ccc(Nc2ccncc2)cc1)c1ccc(Nc2ccnc3ccc([N+](=O)[O-])cc23)cc1", "Group label": -1}

In: How was Cl.Fc1c[c-]c(-c2ccccn2)c(F)c1.[Pt].c1ccc([PH+](CC[PH+](c2ccccc2)c2ccccc2)c2ccccc2)cc1 classified in this test?
Out: 1

In: Follow-up entry: O=C(c1cc(-c2cc3c(cc2C(=O)N2Cc4ccccc4C[C@H]2CN2CCOCC2)OCO3)n2c1CCCC2)N(c1ccccc1)c1ccc(O)cc1
Out: -1

In: Follow-up entry: C=C(CN1CCN(c2ccccc2F)CC1)c1ccc(C(=O)Nc2ccccc2N)cc1
Out: -1

In: Follow-up entry: O=C(Nc1ccncc1)C(=O)c1cn(S(=O)(=O)c2ccccc2F)c2ccccc12
Out: -1

In: Follow-up entry: COc1ccc(C2=C(c3cn(C)c4ccccc34)C(=O)NC2=O)cc1OC
Out: -1

In: Follow-up entry: O=C(O)c1ccc(NS(=O)(=O)c2cccc3cccnc23)cc1
Out: -1

In: Follow-up entry: Cc1cc(N/N=C/c2nc(-c3ccccc3)oc2C)c2cc(Cl)ccc2n1
Out: -1

In: Follow-up entry: Cc1ccc(NS(=O)(=O)c2cc(C)ccc2C)cc1
Out: -1

In: Follow-up entry: Cn1c2ccccc2c2nnc(N/N=C/c3ccccn3)nc21
Out: -1

In: Follow-up entry: CCc1ccc(CCC(=O)Nc2ncc(Cc3ccccc3)s2)o1
Out: -1

In: Follow-up entry: Cc1cc2c(C(N)=O)cccc2n1-c1nc2c(c(NCc3ccccc3)n1)CCCN2
Out: 1
